- Tested on: 653999-131-R-J2-PDC complex spheroid viability
- experimental-details: Anticancer human tumor 653999-131-R-J2-PDC patient-derived lung adenocarcinoma cell line growth inhibition
- particulars: second compound 0.1 µM; first compound 0.949 µM; stronger effect = lower value
Item-by-item account of viability, T/C
Give your result in % as a bare value.

Field: example entries. Status: answers known.
compound="Nc1ccccc1NC(=O)c1ccc(CNC(=O)OCc2cccnc2)cc1 + NC1CC1c1ccc(-c2cccc(O)c2)cc1" reported_result=22.6
compound="O=C(C=Cc1cccc(S(=O)(=O)Nc2ccccc2)c1)NO + NC1CCC(NC2CC2c2ccccc2)CC1" reported_result=28.6

Kindly consider the entry below.
Lab note: compound O=C(C=Cc1cccc(S(=O)(=O)Nc2ccccc2)c1)NO + NC1CC1c1ccc(-c2cccc(O)c2)cc1 tested on 653999-131-R-J2-PDC complex spheroid viability; recorded viability, T/C was 8.83

----------
- Test system: 653999-131-R-J2-PDC complex spheroid viability
- experimental-details: Anticancer human tumor 653999-131-R-J2-PDC cell line growth inhibition;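 further: spheroids exposed to agents for seven days before readout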
- particulars: second compound 3.16 µM; first compound 0.0316 µM; stronger effect = lower value
- Description: Multicellular complex tumor spheroid response to LSD1 Inhibitor Iadademstat in combination with a variety of drugs and investigational agents in selected tumor cell lines The current study was undertaken to assess response to LSD1 inhibitors in combination with standard-of-care drugs and investigational agents in solid tumor complex spheroid models as well as in the K-562 leukemia. […] Compounds. […] If the clinical Cmax for an agent had not been determined, the highest concentration tested was 10 microM. […]
property-name: viability, T/C (%)
Give your result in % as a bare value.

compound="O=C(c1cc(Cc2n[nH]c(=O)c3ccccc23)ccc1F)N1CCN(C(=O)C2CC2)CC1 + NC1CCC(NC2CC2c2ccccc2)CC1" reported_result=91.3
compound="CC(C)c1c(-c2ccccc2)nc2c(C#N)c[nH]n2c1=O + NC1CC1c1ccc(-c2cccc(O)c2)cc1" reported_result=84.2
compound="COc1ccc([C@@H](O)c2cc(-c3ncnc4cc(N5CCOCC5)ccc34)c(F)cc2Cl)nn1 + NC1CCC(NC2CC2c2ccccc2)CC1" reported_result=84.2
compound="CC1COCCN1c1cc(C2(S(C)(=N)=O)CC2)nc(-c2ccnc3[nH]ccc23)n1 (configuration not stated) + NC1CCC(NC2CC2c2ccccc2)CC1" reported_result=101
compound="Nc1ncn(C2CC(O)C(CO)O2)c(=O)n1 (configuration not stated) + NC1CCC(NC2CC2c2ccccc2)CC1" reported_result=94.2

Lab note: compound O=C(C=Cn1cnc(-c2cc(C(F)(F)F)cc(C(F)(F)F)c2)n1)NNc1cnccn1 + NC1CCC(NC2CC2c2ccccc2)CC1 tested on 653999-131-R-J2-PDC complex spheroid viability; recorded viability, T/C was 42.7

Lab note: compound CC(C)CC(NC(=O)CNC(=O)c1cc(Cl)ccc1Cl)B1OC(=O)CC(CC(=O)O)(C(=O)O)O1 (configuration not stated) + NC1CCC(NC2CC2c2ccccc2)CC1 tested on 653999-131-R-J2-PDC complex spheroid viability; recorded viability, T/C was 26.5

----------
Item-by-item account of viability, T/C
- Test system: 653999-131-R-J2-PDC complex spheroid viability
- experimental-details: Anticancer human tumor 653999-131-R-J2-PDC cell line growth inhibition;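 further: spheroids exposed to agents for seven days before readout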
- particulars: second compound 0.1 µM; first compound 0.1 µM; stronger effect = lower value
Give your result in % as a bare value.

Field: example entries. Status: answers known.
compound="COc1ccc([C@@H](O)c2cc(-c3ncnc4cc(N5CCOCC5)ccc34)c(F)cc2Cl)nn1 + NC1CCC(NC2CC2c2ccccc2)CC1" target_of_assay="653999-131-R-J2-PDC complex spheroid viability" unit_info=% reported_result=94.9
compound="CC1COCCN1c1cc(C2(S(C)(=N)=O)CC2)nc(-c2ccnc3[nH]ccc23)n1 (configuration not stated) + NC1CCC(NC2CC2c2ccccc2)CC1" target_of_assay="653999-131-R-J2-PDC complex spheroid viability" unit_info=% reported_result=81.3
compound="CC1COCCN1c1cc(-c2ccnn2C)c2ccnc(-c3ccn[nH]3)c2n1 (configuration not stated) + NC1CC1c1ccc(-c2cccc(O)c2)cc1" target_of_assay="653999-131-R-J2-PDC complex spheroid viability" unit_info=% reported_result=29.7
compound="O=C(C=Cn1cnc(-c2cc(C(F)(F)F)cc(C(F)(F)F)c2)n1)NNc1cnccn1 + NC1CC1c1ccc(-c2cccc(O)c2)cc1" target_of_assay="653999-131-R-J2-PDC complex spheroid viability" unit_info=% reported_result=38.8
compound="CC(C)c1c(-c2ccccc2)nc2c(C#N)c[nH]n2c1=O + NC1CC1c1ccc(-c2cccc(O)c2)cc1" target_of_assay="653999-131-R-J2-PDC complex spheroid viability" unit_info=% reported_result=96.5
compound="O=C(C=Cn1cnc(-c2cc(C(F)(F)F)cc(C(F)(F)F)c2)n1)NNc1cnccn1 + NC1CCC(NC2CC2c2ccccc2)CC1" target_of_assay="653999-131-R-J2-PDC complex spheroid viability" unit_info=% reported_result=30.6
compound="O=C(c1cc(Cc2n[nH]c(=O)c3ccccc23)ccc1F)N1CCN(C(=O)C2CC2)CC1 + NC1CCC(NC2CC2c2ccccc2)CC1" target_of_assay="653999-131-R-J2-PDC complex spheroid viability" unit_info=% reported_result=94.2
compound="CC[C@@]1(O)C(=O)OCc2c1cc1n(c2=O)Cc2cc3c(CN(C)C)c(O)ccc3nc2-1 + NC1CCC(NC2CC2c2ccccc2)CC1" target_of_assay="653999-131-R-J2-PDC complex spheroid viability" unit_info=% reported_result=19.8
compound="CC[C@@]1(O)C(=O)OCc2c1cc1n(c2=O)Cc2cc3c(CN(C)C)c(O)ccc3nc2-1 + NC1CC1c1ccc(-c2cccc(O)c2)cc1" target_of_assay="653999-131-R-J2-PDC complex spheroid viability" unit_info=% reported_result=27.9
compound="CC(C)c1c(-c2ccccc2)nc2c(C#N)c[nH]n2c1=O + NC1CCC(NC2CC2c2ccccc2)CC1" target_of_assay="653999-131-R-J2-PDC complex spheroid viability" unit_info=% reported_result=97.8

GET /value?item= CC1COCCN1c1cc(C2(S(C)(=N)=O)CC2)nc(-c2ccnc3[nH]ccc23)n1 (configuration not stated) + NC1CC1c1ccc(-c2cccc(O)c2)cc1 &field=viability, T/C returns 100

GET /value?item= Nc1ncn(C2CC(O)C(CO)O2)c(=O)n1 (configuration not stated) + NC1CCC(NC2CC2c2ccccc2)CC1 &field=viability, T/C returns 69
